- target-of-assay: Albumin (Bos taurus)
- Sequence (P02769 whole entry): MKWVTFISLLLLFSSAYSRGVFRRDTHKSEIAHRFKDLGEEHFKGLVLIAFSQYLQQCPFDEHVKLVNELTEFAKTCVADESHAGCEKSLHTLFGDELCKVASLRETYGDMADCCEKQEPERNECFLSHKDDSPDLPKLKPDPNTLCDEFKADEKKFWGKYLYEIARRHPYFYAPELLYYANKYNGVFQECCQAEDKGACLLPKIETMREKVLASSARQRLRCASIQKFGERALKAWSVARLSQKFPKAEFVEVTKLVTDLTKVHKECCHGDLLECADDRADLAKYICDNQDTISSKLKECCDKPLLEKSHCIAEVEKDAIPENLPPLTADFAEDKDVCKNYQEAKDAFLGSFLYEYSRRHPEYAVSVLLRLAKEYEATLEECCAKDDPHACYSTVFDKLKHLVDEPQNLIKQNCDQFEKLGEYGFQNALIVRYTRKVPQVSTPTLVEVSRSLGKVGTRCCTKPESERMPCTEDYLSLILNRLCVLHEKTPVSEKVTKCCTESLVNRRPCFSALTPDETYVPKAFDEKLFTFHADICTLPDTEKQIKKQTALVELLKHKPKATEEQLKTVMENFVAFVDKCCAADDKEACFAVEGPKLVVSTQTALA
- experiment-summary: Binding affinity to bovine serum albumin
quantity-measured: pEC50
pEC50 (log units): -log10 of the concentration in mol/L.

Measured pEC50 of "CCN(CC)c1ccc2nc3c4cc(OCCCC(=O)O)ccc4c(=O)cc-3oc2c1" : 5.82

Where do these numbers come from? They come from ChEMBL document CHEMBL1143986.
